# Test system: CCRF-CEM
# EXPERIMENT NOTES: Induction of apoptosis in human CCRF-CEM cells assessed as increase in Noxa expression at 1 to 5 times IC50 incubated for 24 hrs by Western blot analysis
# Type: functional, cell-based
The source made the active and inactive calls. The rule behind the calls is not given here.
MEASUREMENT NAME: Activity

COMPOUND	ENDPOINT VALUE
C=C(C=O)[C@@H]1CC[C@]2(C(=O)OCc3cn([C@H]4O[C@H](CO)[C@@H](O)[C@H](O)[C@H]4O)nn3)CC[C@]3(C)[C@H](CC[C@@H]4[C@@]5(C)Cc6nccnc6C(C)(C)[C@@H]5CC[C@]43C)[C@@H]12 (stereo in doubt)	Active
C=C(C)[C@@H]1CC[C@]2(C(=O)OCc3oc(=O)oc3C)CC[C@]3(C)[C@H](CC[C@@H]4[C@@]5(C)CCC(=O)C(C)(C)[C@@H]5CC[C@]43C)[C@@H]12	Active

###

# EXPERIMENT NOTES: Stability in human liver microsomes assessed as compound remaining at 2 uM measured at 15 mins in presence of NADPH by RF-MS analysis
# Format: ADME, Microsome
# CONDITIONS USED: read-out: Stability
MEASUREMENT NAME: remaining at 0.25 h, 2 µM
Respond with the figure and its unit, in that order.

Look over these answered cases.
COMPOUND	ENDPOINT VALUE
C=C(C=O)[C@@H]1CC[C@]2(C(=O)OCc3cn([C@H]4O[C@H](COC(C)=O)[C@@H](OC(C)=O)[C@H](OC(C)=O)[C@H]4OC(C)=O)nn3)CC[C@]3(C)[C@H](CC[C@@H]4[C@@]5(C)Cc6nccnc6C(C)(C)[C@@H]5CC[C@]43C)[C@@H]12 (stereo in doubt)	96.8%
C=C(C=O)[C@@H]1CC[C@]2(C(=O)OCc3cn([C@H]4O[C@H](COC(C)=O)[C@@H](OC(C)=O)[C@H](OC(C)=O)[C@H]4OC(C)=O)nn3)CC[C@]3(C)[C@H](CC[C@@H]4[C@@]5(C)CC[C@H](O)C(C)(C)[C@@H]5CC[C@]43C)[C@@H]12	95.6%
C=C(C)[C@@H]1CC[C@]2(C(=O)OCc3cn([C@H]4O[C@H](COC(C)=O)[C@@H](OC(C)=O)[C@H](OC(C)=O)[C@H]4OC(C)=O)nn3)CC[C@]3(C)[C@H](CC[C@@H]4[C@@]5(C)Cc6nccnc6C(C)(C)[C@@H]5CC[C@]43C)[C@@H]12 (stereo in doubt)	99.3%

Continue with the next compound.
Measured remaining at 0.25 h, 2 µM, C=C(C)[C@@H]1CC[C@]2(C(=O)OCc3cn([C@H]4O[C@H](COC(C)=O)[C@@H](OC(C)=O)[C@H](OC(C)=O)[C@H]4OC(C)=O)nn3)CC[C@]3(C)[C@H](CC[C@@H]4[C@@]5(C)CC[C@H](O)C(C)(C)[C@@H]5CC[C@]43C)[C@@H]12 : 99%

###

# EXPERIMENT NOTES: Cytotoxicity against human HCT116-p53-null cells assessed as reduction in cell viability incubated for 72 hrs by MTS assay
# Format: functional, cell-based
Reported pIC50 values for the following compounds.
Remember the convention: pIC50 equals -log10 of concentration in molar.

Look over these answered cases.
COMPOUND	pIC50
C=C(C=O)[C@@H]1CC[C@]2(C(=O)OCc3cn([C@H]4O[C@H](COC(C)=O)[C@@H](OC(C)=O)[C@H](OC(C)=O)[C@H]4OC(C)=O)nn3)CC[C@]3(C)[C@H](CC[C@@H]4[C@@]5(C)Cc6nccnc6C(C)(C)[C@@H]5CC[C@]43C)[C@@H]12 (stereo in doubt)	5.77
CC1=CC[C@]2(C(=O)O)CC[C@]3(C)[C@H](CC[C@@H]4[C@@]5(C)Cc6nccnc6C(C)(C)[C@@H]5CC[C@]43C)[C@H]2[C@@H]1C	4.30
C#CCOC(=O)[C@]12CC[C@@H](C(=C)C=O)[C@@H]1[C@H]1CC[C@@H]3[C@@]4(C)CC[C@H](O)C(C)(C)[C@@H]4CC[C@@]3(C)[C@]1(C)CC2	5.82

Continue with the next compound.
Measured pIC50, CC(C)[C@@H]1CC[C@]2(C(=O)O)CC[C@]3(C)[C@H](CC[C@@H]4[C@@]5(C)CCC(=O)C(C)(C)[C@@H]5CC[C@]43C)[C@@H]12 [DIHYDROBETULONIC ACID] : 4.44

###

Reported IC50 values for the following compounds.
# EXPERIMENT NOTES: Cytotoxicity against human HCT116-p53-null cells assessed as reduction in cell viability incubated for 72 hrs by MTS assay
# Format: functional, cell-based

Look over these answered cases.
> print(dat)
                    structure.smiles.string  endpoint.value
1  CC1(C)CC[C@]23CC[C@]4(C)[C@H](CC[C@@H]5[C@@]6(C)Cc7cccnc7C(C)(C)[C@@H]6CC[C@]54C)[C@H]2[C@H]1OC3         > 50 µM
2  C=C(C)[C@@H]1CC[C@]2(C(=O)OCc3oc(=O)oc3C)CC[C@]3(C)[C@H](CC[C@@H]4[C@@]5(C)CC[C@H](O)C(C)(C)[C@@H]5CC[C@]43C)[C@@H]12           15 µM

Continue with the next compound.
Measured IC50, CC1(C)CC[C@]2(C(=O)O)CC[C@]3(C)C(=CC[C@@H]4[C@@]5(C)CCC(=O)C(C)(C)[C@@H]5CC[C@]43C)[C@@H]2C1 : > 50 µM

###

Reported pIC50 values for the following molecules.
# Test system: CCRF-CEM
# EXPERIMENT NOTES: Cytotoxicity against human CCRF-CEM cells assessed as reduction in cell viability incubated for 72 hrs by MTS assay
# Assay type: functional, cell-based
Remember the convention: pIC50 equals -log10 of concentration in molar.

Look over these answered cases.
MOLECULE	TARGET DESC	ENDPOINT VALUE
C=C(C=O)[C@@H]1CC[C@]2(C(=O)OCc3cn([C@H]4O[C@H](COC(C)=O)[C@@H](OC(C)=O)[C@H](OC(C)=O)[C@H]4OC(C)=O)nn3)CC[C@]3(C)[C@H](CC[C@@H]4[C@@]5(C)Cc6nccnc6C(C)(C)[C@@H]5CC[C@]43C)[C@@H]12 (stereo in doubt)	CCRF-CEM	6.12
CC1=CC[C@]2(C(=O)O)CC[C@]3(C)C(=CC[C@@H]4[C@@]5(C)Cc6cccnc6C(C)(C)[C@@H]5CC[C@]43C)[C@H]2[C@@H]1C	CCRF-CEM	5.20
CC1(C)CC[C@]2(C(=O)O)CC[C@]3(C)C(=CC[C@@H]4[C@@]5(C)Cc6nccnc6C(C)(C)[C@@H]5CC[C@]43C)[C@@H]2C1	CCRF-CEM	4.74
CC1(C)C=C2[C@H]3CC[C@@H]4[C@@]5(C)Cc6cccnc6C(C)(C)[C@@H]5CC[C@@]4(C)[C@]3(C)CC[C@@]2(C(=O)O)CC1	CCRF-CEM	5.10
C#CCOC(=O)[C@]12CC[C@@H](C(=C)C=O)[C@@H]1[C@H]1CC[C@@H]3[C@@]4(C)Cc5nccnc5C(C)(C)[C@@H]4CC[C@@]3(C)[C@]1(C)CC2	CCRF-CEM	6.37

Measured pIC50, C#CCOC(=O)[C@]12CC[C@@H](C(=C)C)[C@@H]1[C@H]1CC[C@@H]3[C@@]4(C)Cc5nccnc5C(C)(C)[C@@H]4CC[C@@]3(C)[C@]1(C)CC2 : 4.35

Measured pIC50, CC1(C)CC[C@]2(C(=O)O)CC[C@]3(C)C(=CC[C@@H]4[C@@]5(C)Cc6cccnc6C(C)(C)[C@@H]5CC[C@]43C)[C@@H]2C1 : 4.41

Measured pIC50, C[C@H]1[C@H](C)CC[C@]2(C(=O)O)CC[C@]3(C)C(=CC[C@@H]4[C@@]5(C)Cc6nccnc6C(C)(C)[C@]5(C)CC[C@]43C)[C@H]12 : 4.72

Measured pIC50, Cc1oc(=O)oc1COC(=O)[C@]12CC[C@@H](C(C)C)[C@@H]1[C@H]1CC[C@@H]3[C@@]4(C)Cc5nccnc5C(C)(C)[C@@H]4CC[C@@]3(C)[C@]1(C)CC2 : 4.77

Measured pIC50, C#CCOC(=O)[C@]12CC[C@@H](C(=C)C=O)[C@@H]1[C@H]1CC[C@@H]3[C@@]4(C)CC[C@H](O)C(C)(C)[C@@H]4CC[C@@]3(C)[C@]1(C)CC2 : 6.06

###

# EXPERIMENT NOTES: Cytotoxicity against human HCT116-p53-null cells assessed as reduction in cell viability incubated for 72 hrs by MTS assay
# Format: functional, cell-based
pIC50: −log10 of the molar value.
MEASUREMENT NAME: pIC50

> print(dat)
                    structure.smiles.string  endpoint.value
1  Cc1oc(=O)oc1COC(=O)[C@]12CC[C@@H](C(C)C)[C@@H]1[C@H]1CC[C@@H]3[C@@]4(C)Cc5cccnc5C(C)(C)[C@@H]4CC[C@@]3(C)[C@]1(C)CC2          < 4.30

Measured pIC50, CC1(C)CC[C@]2(C(=O)O)CC[C@]3(C)C(=CC[C@@H]4[C@@]5(C)Cc6nccnc6C(C)(C)[C@@H]5CC[C@]43C)[C@@H]2C1 : < 4.30

Measured pIC50, C[C@H]1[C@H](C)CC[C@]2(C(=O)O)CC[C@]3(C)C(=CC[C@@H]4[C@@]5(C)Cc6cccnc6C(C)(C)[C@@H]5CC[C@]43C)[C@H]12 : < 4.30
